Biological target: CRF1 receptors (Homo sapiens, UniProt P34998)
Construct: endogenous in cells; host or cells: IMR-32 cells, transformed with 2.5 µM 5'-bromo-2'-deoxyuridine for 10 days; membrane preparation
Sequence (P34998 24-415): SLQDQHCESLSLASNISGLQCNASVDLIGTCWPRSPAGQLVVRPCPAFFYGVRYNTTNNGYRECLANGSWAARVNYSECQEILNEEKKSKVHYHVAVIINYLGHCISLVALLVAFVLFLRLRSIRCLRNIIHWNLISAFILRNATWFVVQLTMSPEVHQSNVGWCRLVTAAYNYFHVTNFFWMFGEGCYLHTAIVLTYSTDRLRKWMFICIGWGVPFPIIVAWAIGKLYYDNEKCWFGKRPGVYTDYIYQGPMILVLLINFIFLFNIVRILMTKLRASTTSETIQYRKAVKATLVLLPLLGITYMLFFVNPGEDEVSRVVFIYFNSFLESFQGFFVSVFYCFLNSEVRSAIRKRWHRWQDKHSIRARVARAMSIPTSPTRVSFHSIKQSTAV
Assay: CRF1 receptor radioligand binding assay ([125I]-oCRF competition, IMR-32 cell membranes)
Conditions: IMR-32 cell membranes, [125I]-oCRF 100 pM; read-out: Ki (CRF-1R)
pKi: −log10 of the molar value.
Examples of compounds with documented pKi follow.

Known pKi results, listed for orientation:
CCN(CCc1ccccc1)Cc1c(C(F)(F)F)nc2n(-c3c(C)cc(C)cc3C)c3ccccc3n12 [Example 163] ... > 6.00
CCN(Cc1ccccc1)Cc1c(C(F)(F)F)nc2n(-c3ccc(C(C)C)cc3Br)c3ccccc3n12 ... > 5.00
CCN(CCc1ccccc1)Cc1c(C(F)(F)F)nc2n(-c3c(C)cc(C)cc3C)c3ccccc3n12 [Example 174] ... > 5.00

Qu. Please indicate recorded pKi of Cc1cc(C)c(-n2c(Cl)cn3c(CN(C)CCc4ccccc4)c(C(F)(F)F)nc23)c(C)c1 measured with CRF1 receptors (Homo sapiens, UniProt P34998).
Ans. > 6.00

Qu. Return reported pKi for target or system CRF1 receptors (Homo sapiens, UniProt P34998), item CCCCN(CC)C(=O)c1c(CC)nc2n(-c3c(C)cc(C)cc3C)c(Cl)cn12 .
Ans. > 7.00

Qu. GET pKi | system: CRF1 receptors (Homo sapiens, UniProt P34998) | item: CCCN(CC1CCC1)C(=O)c1c(C)nc2n1CCCN2c1c(C)cc(C)cc1C
Ans. > 5.00

Qu. Answer with pKi of CCCN(CCC1CC1)Cc1c(C(F)(F)F)nc2n(-c3c(C)cc(C)cc3C)c3ccccc3n12 measured for CRF1 receptors (Homo sapiens, UniProt P34998).
Ans. > 6.00

Qu. Specify the recorded pKi for CCc1nc2n(-c3c(C)cc(C)cc3C)c3ncccc3n2c1CN(CC1CC1)CC1CC1 , system: CRF1 receptors (Homo sapiens, UniProt P34998).
Ans. > 7.00

Qu. Tell me pKi of CCCN(CC1CC1)C(=O)c1c(CC)nc2n1CCN2c1ccc(C(C)C)cc1Br when tested on CRF1 receptors (Homo sapiens, UniProt P34998).
Ans. > 5.00

Qu. Determine reported pKi for Cc1cc(C)c(N2CCCn3c2nc(C(F)(F)F)c3CN2CCCC2Cc2ccccc2)c(Cl)c1 (centres unmarked) ; test system: CRF1 receptors (Homo sapiens, UniProt P34998).
Ans. > 7.00

Qu. Report pKi from CRF1 receptors (Homo sapiens, UniProt P34998) testing of CCCCN(Cc1ccccc1)Cc1c(C(F)(F)F)nc2n(-c3c(C)cc(C)cc3C)c(Cl)cn12
Ans. > 6.00

Reference source for all entries: patent US7125990B2
